# Tested on: Saccharomyces cerevisiae
# experimental protocol: protein stability index of tFT-peptide fusion (C-terminal peptide) (PSI (0-1 scale)); higher = more stable (slower turnover)
# assay conditions: genetic background: wild type; temperature: 37 C

{"query sequence": "VCLFSVCLWFVS", "protein stability index": 0.227}
{"query sequence": "VVFRCSSFFCLV", "protein stability index": 0.536}
{"query sequence": "DKKPMKKILLCI", "protein stability index": 0.104}
{"query sequence": "VVLGLFCVRMGT", "protein stability index": 0.572}
{"query sequence": "GKHILLISLNIT", "protein stability index": 0.455}
{"query sequence": "KSARLYVTSFLC", "protein stability index": 0.179}
{"query sequence": "LVFFAYLIRGAL", "protein stability index": 0.0558}

====

# Tested on: Saccharomyces cerevisiae;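 note: PSI is a weighted mean of sequencing reads over stability bins, variants kept only with over 10 reads, mCherry proximal and sfGFP distal, peptide attached via GGGS linker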
# experimental protocol: protein stability index of tFT-peptide fusion (C-terminal peptide) (PSI (0-1 scale)); higher = more stable (slower turnover)
# assay conditions: genetic background: wild type; temperature: 30 C
# cutoff 0.2 applies to protein stability index; >= gives yes, < gives no

{"query sequence": "VCIPLLVIRFLV", "category": "no"}
{"query sequence": "APPFPSLSSFAP", "category": "yes"}
{"query sequence": "RFRFRRTCLYAT", "category": "no"}
{"query sequence": "LFFWWVAVVFRV", "category": "no"}
{"query sequence": "LAVRSGFPFGLF", "category": "no"}
{"query sequence": "ERFILVGMFGSW", "category": "yes"}
{"query sequence": "VVFRCSSFFCLV", "category": "yes"}
{"query sequence": "VIVIQGFVFVLG", "category": "yes"}
{"query sequence": "ESVPLLIVLHLV", "category": "no"}
{"query sequence": "GRVFSSFFLYIS", "category": "no"}
{"query sequence": "FVLLCVLEFVAG", "category": "no"}
{"query sequence": "GWLRHGWWRTVG", "category": "no"}
{"query sequence": "MSCILFCCLVPF", "category": "yes"}
{"query sequence": "FLAFSYIRLLFF", "category": "no"}
{"query sequence": "AALFNYVVCFCA", "category": "yes"}
{"query sequence": "PPPPPPLPSSFP", "category": "yes"}
{"query sequence": "FFGVLFRVSLFF", "category": "no"}
{"query sequence": "RGAVRVAWYPVL", "category": "yes"}
{"query sequence": "ISVRKTFLIVLC", "category": "no"}
{"query sequence": "WILLVLACFSSG", "category": "yes"}
{"query sequence": "LVDSRIVWLFVS", "category": "no"}
{"query sequence": "PRRVTVPGVPPL", "category": "yes"}
{"query sequence": "APPRLPLLSCSQ", "category": "yes"}
{"query sequence": "VIQKKKKNKITS", "category": "yes"}
{"query sequence": "LVGLESCGERAG", "category": "yes"}
{"query sequence": "IREYSIRIKRLQ", "category": "no"}
{"query sequence": "LLLSLLVLRFFL", "category": "yes"}
{"query sequence": "GRVYLLGLYMSF", "category": "yes"}
{"query sequence": "RVSECVSVVGWM", "category": "yes"}
{"query sequence": "RGDCFLVLCVWR", "category": "yes"}
{"query sequence": "CCMLCVVAWSGV", "category": "yes"}
{"query sequence": "FLSVGFSCSFVC", "category": "yes"}
{"query sequence": "IFRLVRVVRSSS", "category": "yes"}
{"query sequence": "CLYATQFWGRYG", "category": "yes"}
{"query sequence": "AASRVIYLLNLF", "category": "yes"}
{"query sequence": "FLLELRFTCSYS", "category": "yes"}
{"query sequence": "APPSRRLTLRLA", "category": "no"}
{"query sequence": "VWSVSVTIVGRR", "category": "yes"}
{"query sequence": "KLKLWSIIKNNA", "category": "yes"}
{"query sequence": "FLIFVVIGGVGL", "category": "yes"}
{"query sequence": "GIKLNVVYILLG", "category": "yes"}
{"query sequence": "VFGVWVVVGCVG", "category": "no"}
{"query sequence": "PDKRNHLIKLLN", "category": "no"}
{"query sequence": "GFALGSFMLVLR", "category": "no"}
{"query sequence": "CSFPTFRSLLLL", "category": "yes"}
{"query sequence": "TCVVCSCVLQCV", "category": "yes"}
{"query sequence": "INGINHKIIKIV", "category": "no"}
{"query sequence": "FLFIFFFFLISF", "category": "yes"}
{"query sequence": "CVVFLWCGGCWV", "category": "yes"}
{"query sequence": "KRKKHKRKLVIC", "category": "no"}
{"query sequence": "FWMLCFLCRLTV", "category": "yes"}
{"query sequence": "YRFVWRWIPICA", "category": "no"}
{"query sequence": "FVEFCFWCFWVV", "category": "yes"}
{"query sequence": "LWGVGRQRNIAS", "category": "yes"}
{"query sequence": "RKKKRNKKKMIM", "category": "yes"}
{"query sequence": "VLVLLVCVAALV", "category": "no"}
